# target under test: CDK9 CCNT1 (human) (UniProt P50750+O60563)
# Sequence (O60563 whole entry, looked up): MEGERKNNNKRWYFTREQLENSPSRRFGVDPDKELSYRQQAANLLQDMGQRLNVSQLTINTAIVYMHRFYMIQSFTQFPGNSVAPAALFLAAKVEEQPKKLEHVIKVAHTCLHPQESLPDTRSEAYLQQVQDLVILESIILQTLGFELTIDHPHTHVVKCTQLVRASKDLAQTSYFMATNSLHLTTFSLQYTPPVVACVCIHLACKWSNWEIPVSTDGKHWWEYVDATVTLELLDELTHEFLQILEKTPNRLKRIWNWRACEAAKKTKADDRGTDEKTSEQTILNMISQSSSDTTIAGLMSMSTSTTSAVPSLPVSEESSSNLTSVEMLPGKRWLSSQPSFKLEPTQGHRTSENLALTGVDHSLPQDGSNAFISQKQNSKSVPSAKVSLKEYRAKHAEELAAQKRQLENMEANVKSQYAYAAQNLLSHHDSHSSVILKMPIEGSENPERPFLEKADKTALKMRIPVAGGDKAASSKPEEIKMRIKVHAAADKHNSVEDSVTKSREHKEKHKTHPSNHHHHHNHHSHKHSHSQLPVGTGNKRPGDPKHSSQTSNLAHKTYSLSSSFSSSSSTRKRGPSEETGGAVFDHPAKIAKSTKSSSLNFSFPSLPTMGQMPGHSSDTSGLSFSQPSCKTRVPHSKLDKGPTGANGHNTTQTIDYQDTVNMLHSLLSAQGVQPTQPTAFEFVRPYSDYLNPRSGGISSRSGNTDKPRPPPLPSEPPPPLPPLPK
# Sequence (P50750 whole entry, looked up): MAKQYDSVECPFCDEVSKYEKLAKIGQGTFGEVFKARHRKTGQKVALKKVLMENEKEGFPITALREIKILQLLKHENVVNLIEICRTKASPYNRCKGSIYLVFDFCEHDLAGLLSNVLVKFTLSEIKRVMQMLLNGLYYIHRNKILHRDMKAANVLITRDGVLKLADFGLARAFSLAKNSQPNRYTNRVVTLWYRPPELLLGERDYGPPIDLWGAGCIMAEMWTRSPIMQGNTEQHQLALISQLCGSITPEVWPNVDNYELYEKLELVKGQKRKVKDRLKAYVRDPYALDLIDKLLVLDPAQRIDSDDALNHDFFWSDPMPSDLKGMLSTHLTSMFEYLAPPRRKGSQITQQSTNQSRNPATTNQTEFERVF
# experimental details: radiometric filter-binding kinase assay, Kinase HotSpot
# test settings: compound 0.5 µM; ATP 10 µM
So basically, if residual activity comes in under 90% it's Fulfilled, and if it's 90% or more it's Not fulfilled.

Given O=C(CCCc1ccc(-c2ccccc2F)cc1)Nc1ccc(O)cc1 , is recorded residual activity strictly lower than 90%?
Not fulfilled

Note, next up: O=C(O)/C=C/c1cc(Br)c(Br)c(Br)c1Br
Fulfilled

Note, next up: Nc1nnc2[nH]c3ccccc3nc1-2
Fulfilled

* * *

# target under test: EPHA1 (human)
# experimental details: radiometric filter-binding kinase assay, Kinase HotSpot
# test settings: compound 0.5 µM; ATP 10 µM
recorded metric: residual activity (%)
The reply should be a number in %, with the unit left off.

// returns reported residual activity for input Cn1nc2c3c(cccc31)C(=O)c1ccccc1-2
94.8

Note, next up: CC(C)c1nn(-c2c(Cl)cccc2Cl)c2nc(Cc3ccc(OCCO)cc3)nc(O)c12
95

Note, next up: Cc1nc2cc3nc(-c4cccs4)cnc3cc2n1C
87.1

Note, next up: Nc1nnc2[nH]c3ccccc3nc1-2
100

Note, next up: O=C1NC(=O)/C(=C\c2ccc3nccnc3c2)S1
91.8

Note, next up: Nc1nccc(-c2c(-c3ccc(F)cc3)ncn2C2CCNCC2)n1
98.2

Note, next up: O=C(Nc1cccc(Nc2cc(Nc3cccc(C(F)(F)F)c3)ncn2)c1)C1CC1
92.9

Note, next up: O=C1Cc2c([nH]c3ccc(Br)cc23)-c2ccccc2N1
100

Note, next up: COc1ccc(OC)c2c(=S)c3ccccc3[nH]c12
89

Note, next up: Cn1cnc2cc3c(Nc4cccc(Br)c4)ncnc3cc21
84.4

Note, next up: CC(C)[C@H](CO)Nc1nc(Nc2cc(N)cc(Cl)c2)c2ncn(C(C)C)c2n1
76.9

* * *

# target under test: PHKG1 (human) (UniProt Q16816)
# Sequence (Q16816 whole entry, looked up): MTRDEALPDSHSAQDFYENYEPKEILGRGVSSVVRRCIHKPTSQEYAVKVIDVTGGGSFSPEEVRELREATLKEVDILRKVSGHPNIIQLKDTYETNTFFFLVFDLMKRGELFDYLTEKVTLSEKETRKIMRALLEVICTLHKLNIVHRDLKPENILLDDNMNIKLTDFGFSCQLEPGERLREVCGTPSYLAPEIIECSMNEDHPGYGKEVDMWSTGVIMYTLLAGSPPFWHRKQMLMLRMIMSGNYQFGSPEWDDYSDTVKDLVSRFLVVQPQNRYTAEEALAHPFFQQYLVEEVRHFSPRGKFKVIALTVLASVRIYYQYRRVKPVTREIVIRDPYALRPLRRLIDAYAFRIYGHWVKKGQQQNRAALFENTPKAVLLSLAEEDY
# experimental details: radiometric filter-binding kinase assay, Kinase HotSpot
# test settings: compound 0.5 µM; ATP 10 µM
recorded metric: residual activity (%)
The reply should be a number in %, with the unit left off.

Missing value: residual activity, PHKG1 (human) (UniProt Q16816), entry O=C1NC(=O)/C(=C\c2ccc3nccnc3c2)S1 . Fill in?
91.3

Note, next up: COc1ccc(OC)c2c(=S)c3ccccc3[nH]c12
83

Note, next up: CC(C)c1nn(-c2c(Cl)cccc2Cl)c2nc(Cc3ccc(OCCO)cc3)nc(O)c12
87

Note, next up: O=C1Nc2ccccc2/C1=C1\Nc2ccccc2\C1=N/O
31.5

Note, next up: COc1cc2ncnc(N3CCN(C(=O)Nc4ccc(Oc5ccccc5)cc4)CC3)c2cc1OC
89.5

Note, next up: O=C(O)/C=C/c1cc(Br)c(Br)c(Br)c1Br
87.6

Note, next up: Nc1nnc2[nH]c3ccccc3nc1-2
86.9

Note, next up: CCN(CC)CCCCN1c2ccccc2Oc2ccc(Cl)cc21
96.5

Note, next up: Cc1nc2cc3nc(-c4cccs4)cnc3cc2n1C
98.2

Note, next up: Cn1nc2c3c(cccc31)C(=O)c1ccccc1-2
86.4

Note, next up: CC(=O)O/N=C1\C(=C2\C(=O)Nc3cc(Br)ccc32)Nc2ccccc21
67.7

Note, next up: Oc1ccc(Nc2nc(-c3ccc(Cl)cc3)cs2)cc1
96.5

Note, next up: Cn1cnc2cc3c(Nc4cccc(Br)c4)ncnc3cc21
85

Note, next up: O=C1NC(=O)C(c2c[nH]c3ccccc23)=C1c1c[nH]c2ccccc12
74.9

Note, next up: O=C(CCCc1ccc(-c2ccccc2F)cc1)Nc1ccc(O)cc1
89.1

Note, next up: O=C1Cc2c([nH]c3ccc(Br)cc23)-c2ccccc2N1
49.7
